# Measurement Notes: chemical genetic growth profiling, strain panel (AID 1159580);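 further: tested at 20 µM; growth read once vehicle control cultures reached saturation at 30 °C; 1 = growth at the plate median or of vehicle wells; lower values mean less growth of the strain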
# Condition Info: S. cerevisiae deletion strains, growth OD, locus YHR082C, strain KSP1, hits give low values
The whole screen tested about 5,500 compounds, of which about 2,000 (36%) were called active. Roughly 18% stayed inconclusive and do not appear here. The list shows a part of the results.
Measured Endpoint: normalized growth
Give a plain numeric answer without units written out.

Answered examples (2):
{"Compound": "O/N=C(/c1ccc(Cl)cc1)c1cc2ccccc2o1", "normalized growth": 0.877}
{"Compound": "CCOC(=O)N/N=C\\c1cc(Cl)cc(Cl)c1O", "normalized growth": 0.655}

## Task Tell me its normalized growth given `O=C1C(Cl)=C(Oc2cc(Cl)c(Cl)cc2Cl)C(=O)c2ccccc21` as the entry.
## Result 0.148

## Task Tell me its normalized growth given `O=C(NNc1ccc(F)cc1F)c1sccc1Cl` as the entry.
## Result 0.987

## Task Tell me its normalized growth given `COCCCNC(=S)N/N=C\c1cc(Cl)cc(Cl)c1O` as the entry.
## Result 0.983

## Task Tell me its normalized growth given OC1(C(F)(F)F)CC(c2ccc3ccccc3c2)=NN1 (stereo unspecified) as the entry.
## Result 0.141

## Task Tell me its normalized growth given Cc1c(C)c(C)c(C(O)c2ccccc2)c(C)c1C (stereo unspecified) as the entry.
## Result 0.779

## Task Tell me its normalized growth given `CC(C)(C)C(=O)NC(=S)N/N=C\c1cc(Cl)cc(Cl)c1O` as the entry.
## Result 0.277

## Task Tell me its normalized growth given `Cc1cc(Cl)ccc1NNC(=O)c1sccc1Cl` as the entry.
## Result 0.884

## Task Tell me its normalized growth given `Cc1ccc(NNC(=O)c2cccs2)cc1Cl` as the entry.
## Result 1.03

## Task Tell me its normalized growth given `c1ccc(-c2nnc(-c3ccccn3)nc2-c2ccccc2)cc1` as the entry.
## Result 0.655

====

Measured normalized growth values are reported for all entries that follow.
# Measurement Notes: chemical genetic growth profiling, strain panel (AID 1159580);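 further: tested at 20 µM; growth read once vehicle control cultures reached saturation at 30 °C; 1 = growth at the plate median or of vehicle wells; lower values mean less growth of the strain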
# Condition Info: S. cerevisiae deletion strains, growth OD, locus YHR142W, strain chs7, hits give low values
The campaign covered roughly 5,500 compounds. About 2,000 (36%) were called active. Roughly 18% stayed inconclusive and do not appear here. This is one part of the list.

Answered examples (3):
{"Molecule": "CC(CC(O)C1OC1(C)C)[C@@H]1CCC2(C)C3=CCC4C(C)(C)C(=O)CCC4(C)C3CC[C@@]12C (some centres undefined)", "normalized growth": "1 (inactive)"}
{"Molecule": "NC(N)=NC(=O)c1nc(Cl)c(N)nc1N", "normalized growth": "1.02 (inactive)"}
{"Molecule": "CCC1OC(=O)[C@H](C)C(=O)[C@H](C)[C@@H](OC2O[C@H](C)C[C@H](N(C)C)[C@H]2O)[C@](C)(OC)C2(CCCn3cnc(-c4cccnc4)c3)C[C@@H](C)C(=O)[C@H](C)[C@H]3N(C2)C(=O)O[C@]13C (some centres undefined)", "normalized growth": "0.973 (inactive)"}

Could you now look at the following molecule, please?
## Task Tell me its normalized growth given CC(C1OC(C)(C)C(O)C1O)[C@@H]1CC[C@]2(C)C3=CCC4C(C)(C)C(=O)CC[C@]4(C)C3CC[C@@]12C (some centres undefined) as the entry.
## Result 0.919 (inactive)
